System: KB-3-1
Assay: Cytotoxic Profiling of Annotated Libraries Using Quantitative High-Throughput Screening (AID 1296008); note: % is set by controls: 0 for no effect and ±100 for the full control effect; nearly all actives have a fitted effect of over 60% in size
Details: Five cell lines viability, CellTiter-Glo ATP luminescence, 48-72 h; stronger effect = lower value
Experimental: Cell-based phenotypic screening is a commonly used approach to discover biological pathways, novel drug targets, chemical probes and high-quality hit-to-lead molecules. […] A pintool (Kalypsys) was used to transfer 23 nL of compound solution to the 1536-well assay plates. […] Plates were left at room temperature for 10 min before imaging the ATP-coupled luminescence using a ViewLux microplate imager (PerkinElmer, Waltham, MA).
Records with an inconclusive call do not appear.
MEASURED_QUANTITY: max response (%)
Report only the number, with the unit % understood.

Please give the measured max response for this molecule: COc1ccc(CN(CCN(C)C)c2ccccn2)cc1
-13

Please give the measured max response for this molecule: COc1ccc2c(c1OC)C(=O)O[C@@H]2[C@H]1c2c(cc3c(c2OC)OCO3)CCN1C
-12.5

Please give the measured max response for this molecule: CCOC(=O)C1=C(C)NC(C)=C(C(=O)OC)C1c1cccc([N+](=O)[O-])c1 (stereo unspecified)
-12.8

Please give the measured max response for this molecule: O=C(O)CCCCCCCC(=O)O
-3.68

Please give the measured max response for this molecule: C[C@H](CS)C(=O)N1CCC[C@H]1C(=O)O
0.626

Please give the measured max response for this molecule: CN(C(=O)CCCOc1ccc2[nH]c(=O)ccc2c1)C1CCCCC1
-8.72

Please give the measured max response for this molecule: COC(=O)C1=C(C)NC(C)=C(C(=O)OCCN(C)Cc2ccccc2)C1c1cccc([N+](=O)[O-])c1 (stereo unspecified)
-10.4

Please give the measured max response for this molecule: Cc1nc2c([nH]1)c(=O)n(C)c(=O)n2Cc1ccco1
16.5

Please give the measured max response for this molecule: CN/C(=C\[N+](=O)[O-])NCCSCc1ccc(CN(C)C)o1
15

Please give the measured max response for this molecule: CC(=O)Oc1cc(C(C)C)c(OCCN(C)C)cc1C
3.97

Please give the measured max response for this molecule: c1cnc(N2CCN(Cc3ccc4c(c3)OCO4)CC2)nc1
-6.36
